Examples of compounds with documented activity remaining, high choline follow.
# tested_system: High affinity choline transporter 1 (Homo sapiens) (UniProt Q9GZV3)
# Sequence (Q9GZV3 whole entry, looked up): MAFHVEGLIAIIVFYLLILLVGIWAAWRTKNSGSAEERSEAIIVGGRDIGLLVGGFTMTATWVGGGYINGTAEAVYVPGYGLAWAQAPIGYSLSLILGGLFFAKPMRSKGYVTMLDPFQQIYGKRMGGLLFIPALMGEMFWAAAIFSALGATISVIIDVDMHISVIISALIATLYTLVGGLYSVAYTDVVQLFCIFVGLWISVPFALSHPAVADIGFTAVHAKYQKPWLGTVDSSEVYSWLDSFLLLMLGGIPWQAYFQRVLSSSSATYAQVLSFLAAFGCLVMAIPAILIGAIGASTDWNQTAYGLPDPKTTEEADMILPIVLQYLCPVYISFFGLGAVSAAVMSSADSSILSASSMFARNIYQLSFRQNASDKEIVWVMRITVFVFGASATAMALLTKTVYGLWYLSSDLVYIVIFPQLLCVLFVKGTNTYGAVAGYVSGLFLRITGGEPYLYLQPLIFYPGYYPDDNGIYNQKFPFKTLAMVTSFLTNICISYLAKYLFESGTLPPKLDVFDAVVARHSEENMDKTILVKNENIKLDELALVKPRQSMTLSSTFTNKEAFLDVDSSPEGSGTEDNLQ
# assay_name: CHT inhibition at low and high choline, SAR follow-up, mechanism study for choline transporter inhibitor project, cell-based, HEK-293 hCHT LV-AA, [3H]-choline (AID 652215)
# test_context: [3H]-choline uptake, 15 min, measured here: 10 uM choline uptake, at 5 µM, stronger effect = lower value

compound	output_unit	activity remaining, high choline
COc1ccc(C(=O)NCCN2CCOC2=O)cc1OC1CCN(C(C)C)CC1	%	97.6
COc1ccc(C(=O)NCC2OCCc3ccccc32)cc1OC1CCN(C(C)C)CC1 (configuration not stated)	%	67.1
CCc1cc(CNC(=O)c2ccc(OC)c(OCc3ccccn3)c2)on1	%	102
COc1ccc(C(=O)NCc2cc(C(C)C)no2)cc1OCc1cccnc1	%	95.5
COc1ccc(C(=O)NC2CCCCC2)cc1OC1CCN(C(C)C)CC1	%	78.8
CCc1cc(CNC(=O)c2ccc(OC)c(OCC3CCC3)c2)on1	%	70.2
CCc1cc(CNC(=O)c2ccc(OC)c(OCCN3CCCCC3)c2)on1	%	38.2
COc1ccc(C(=O)NCc2cc(C(C)C)no2)cc1OCc1ccncc1	%	83.8
CCc1cc(CNC(=O)c2ccc(OC)c(OC3CCCN(C)C3)c2)on1 (configuration not stated)	%	67.1
COc1ccc(C(=O)N[C@H]2CCCCNC2=O)cc1OC1CCN(C(C)C)CC1	%	73.4
COc1ccc(C(=O)NCC(C)Oc2cccnc2)cc1OC1CCN(C(C)C)CC1 (configuration not stated)	%	71.2
COc1ccc(C(=O)NCc2ccccc2C)cc1OC1CCN(C(C)C)CC1	%	64.8
CCCCOc1cc(C(=O)NCc2cc(C(C)C)no2)ccc1OC	%	88.8
CCc1cc(CNC(=O)c2ccc(OC)c(OCc3cccnc3)c2)on1	%	72
COc1ccc(C(=O)NCCc2cnn(C)c2)cc1OC1CCN(C(C)C)CC1	%	88.3
COc1ccc(C(=O)N[C@H]2CC[C@H](O)CC2)cc1OC1CCN(C(C)C)CC1	%	101
CCc1cc(CNC(=O)c2ccc(OC)c(OC3CCNCC3)c2)on1	%	94.7
CCc1cc(CNC(=O)c2ccc(OC)c(OC3CCN(C)CC3)c2)on1	%	56.4
COc1ccc(C(=O)NC(C)c2nccs2)cc1OC1CCN(C(C)C)CC1 (configuration not stated)	%	72.1
COc1ccc(C(=O)NCCN2CCCCC2=O)cc1OC1CCN(C(C)C)CC1	%	84.5
COc1ccc(C(=O)NCc2cc(C(C)C)no2)cc1OC(C)C	%	99.8
CCc1cc(CNC(=O)c2ccc(OC)c(OC3CCN(C(C)C)CC3)c2)on1	%	71

From: PubChem BioAssay AID652215
